Where do the numbers come from? From patent US9902713B2.

Molecular target: μ-opioid receptor (Homo sapiens)
Sequence (P35372 whole entry, species assumed): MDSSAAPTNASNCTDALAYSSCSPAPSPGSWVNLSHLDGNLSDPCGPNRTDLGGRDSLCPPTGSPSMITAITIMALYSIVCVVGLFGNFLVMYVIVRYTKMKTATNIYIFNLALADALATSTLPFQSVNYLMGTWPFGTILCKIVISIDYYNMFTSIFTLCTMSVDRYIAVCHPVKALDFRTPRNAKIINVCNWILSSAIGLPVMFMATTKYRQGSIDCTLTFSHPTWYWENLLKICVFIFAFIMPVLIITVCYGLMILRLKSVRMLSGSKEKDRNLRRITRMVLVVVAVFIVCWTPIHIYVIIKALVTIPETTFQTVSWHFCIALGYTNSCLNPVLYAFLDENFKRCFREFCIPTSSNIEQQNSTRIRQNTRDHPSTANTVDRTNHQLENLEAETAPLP

Compound: COc1cccc(NCC(F)Cn2c3ccc(Br)cc3c3cc(Br)ccc32)n1 (single isomer, unassigned; (-)) [(−)-P7C3-S243]
IC50 [µM]: 8.2

---

Experiment: in vivo
Details: mouse, brain and plasma, iv, 10 mg/kg

Compound: COc1cccc(NCC(F)Cn2c3ccc(Br)cc3c3cc(Br)ccc32)n1 (racemic)
Kp: 1.1

---

Test: in vivo
Conditions: mouse, plasma, po, 20 mg/kg

Molecule: COc1cccc(NCC(F)Cn2c3ccc(Br)cc3c3cc(Br)ccc32)n1 (racemic)
Unit Annotation: %
bioavailability: 38

---

Molecular target: UniProtKB P05177
Sequence (P05177 1-516): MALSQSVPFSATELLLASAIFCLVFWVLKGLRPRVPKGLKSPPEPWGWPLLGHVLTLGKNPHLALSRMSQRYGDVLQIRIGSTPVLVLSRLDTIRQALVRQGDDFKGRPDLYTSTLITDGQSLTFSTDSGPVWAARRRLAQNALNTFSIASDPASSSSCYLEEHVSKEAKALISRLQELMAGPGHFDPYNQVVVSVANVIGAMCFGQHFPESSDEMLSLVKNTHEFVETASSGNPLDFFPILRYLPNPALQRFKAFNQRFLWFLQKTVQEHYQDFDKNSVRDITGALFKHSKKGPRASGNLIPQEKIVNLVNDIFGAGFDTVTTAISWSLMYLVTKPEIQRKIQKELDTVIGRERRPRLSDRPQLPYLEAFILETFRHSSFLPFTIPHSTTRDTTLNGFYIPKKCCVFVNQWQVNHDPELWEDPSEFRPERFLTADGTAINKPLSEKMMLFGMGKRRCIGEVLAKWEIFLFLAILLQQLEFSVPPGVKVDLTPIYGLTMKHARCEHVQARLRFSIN
pIC50: −log10 of the molar value.
Readout Kind: pIC50

Molecule: COc1cccc(NCC(F)Cn2c3ccc(Br)cc3c3cc(Br)ccc32)n1 (single isomer, unassigned; (-)) [(−)-P7C3-S243]
Value Observed: 4.70

---

Assay: in vivo
Details: mouse, brain and plasma, ip, 20 mg/kg
Readout Kind: Kp

Molecule: COc1cccc(NCC(F)Cn2c3ccc(Br)cc3c3cc(Br)ccc32)n1 (racemic) [P7C3-S243]
Readout Kind: Kp
Value Observed: 0.28

---

Target: hERG (Homo sapiens)
Sequence (Q12809 whole entry): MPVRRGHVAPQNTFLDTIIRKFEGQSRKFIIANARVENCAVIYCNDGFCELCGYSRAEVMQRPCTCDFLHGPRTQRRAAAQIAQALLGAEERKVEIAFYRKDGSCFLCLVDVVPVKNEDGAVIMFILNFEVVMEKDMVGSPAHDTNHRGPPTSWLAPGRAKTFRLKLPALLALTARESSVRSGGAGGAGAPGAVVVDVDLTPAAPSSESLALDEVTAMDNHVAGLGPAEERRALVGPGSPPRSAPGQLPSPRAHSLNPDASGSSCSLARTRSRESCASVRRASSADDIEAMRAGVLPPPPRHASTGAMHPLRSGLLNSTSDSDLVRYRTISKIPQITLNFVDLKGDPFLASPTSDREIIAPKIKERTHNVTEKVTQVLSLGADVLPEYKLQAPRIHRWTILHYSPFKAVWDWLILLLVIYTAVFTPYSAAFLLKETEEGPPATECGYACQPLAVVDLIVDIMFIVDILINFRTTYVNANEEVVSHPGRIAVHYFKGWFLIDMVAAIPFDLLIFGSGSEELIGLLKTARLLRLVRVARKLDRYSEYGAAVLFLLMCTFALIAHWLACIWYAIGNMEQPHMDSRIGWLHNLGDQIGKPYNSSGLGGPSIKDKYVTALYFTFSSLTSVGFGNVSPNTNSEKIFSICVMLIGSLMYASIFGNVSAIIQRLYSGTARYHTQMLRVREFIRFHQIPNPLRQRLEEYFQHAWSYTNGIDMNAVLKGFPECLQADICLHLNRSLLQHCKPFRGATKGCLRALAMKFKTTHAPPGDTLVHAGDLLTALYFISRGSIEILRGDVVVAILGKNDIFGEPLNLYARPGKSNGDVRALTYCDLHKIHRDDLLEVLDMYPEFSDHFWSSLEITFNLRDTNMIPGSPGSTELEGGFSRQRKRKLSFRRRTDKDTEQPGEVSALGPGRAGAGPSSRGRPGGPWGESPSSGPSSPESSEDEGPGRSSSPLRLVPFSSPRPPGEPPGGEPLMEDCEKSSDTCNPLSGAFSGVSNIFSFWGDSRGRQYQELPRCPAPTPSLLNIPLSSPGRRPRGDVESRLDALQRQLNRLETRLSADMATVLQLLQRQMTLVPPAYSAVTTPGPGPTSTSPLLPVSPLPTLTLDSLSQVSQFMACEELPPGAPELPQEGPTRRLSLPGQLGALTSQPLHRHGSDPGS
Experiment: hERG patch clamp assay

Molecule: COc1cccc(NCC(F)Cn2c3ccc(Br)cc3c3cc(Br)ccc32)n1 (single isomer, unassigned; (-)) [(−)-P7C3-S243]
inhibition at 50 µM: < 15%

---

Experiment: in vivo
Conditions: mouse, brain and plasma, ip, 10 mg/kg
Readout Kind: Kp

Compound: COc1cccc(NCC(F)Cn2c3ccc(Br)cc3c3cc(Br)ccc32)n1 (racemic)
Readout Kind: Kp
Value Observed: 0.45
